Tested on: LPS induced TNF-α secretion from h-PBMC's
assay.summary: Inhibition of LPS induced TNF-α secretion from h-PBMC's
Assay type: cell-based, human
measurement.setup: LPS 5 μg/mL, compound 10 μg/mL added after 45 minutes; time 16 h; h-PBMC's 3rd subject; ± SD
measured.metric: TNF-α secreted in the presence of LPS and 17c-20c (pg/mL)
Answers are plain numbers, in pg/mL.

Recorded TNF-α secreted in the presence of LPS and 17c-20c, per entry:
Consider O=C(OC[C@H]1O[C@@H](OC(=O)c2cccc(C(=O)O[C@@H]3O[C@H](COC(=O)c4cc(O)c(O)c(O)c4)[C@@H](OC(=O)c4cc(O)c(O)c(O)c4)[C@H](OC(=O)c4cc(O)c(O)c(O)c4)[C@H]3OC(=O)c3cc(O)c(O)c(O)c3)c2)[C@H](OC(=O)c2cc(O)c(O)c(O)c2)[C@@H](OC(=O)c2cc(O)c(O)c(O)c2)[C@@H]1OC(=O)c1cc(O)c(O)c(O)c1)c1cc(O)c(O)c(O)c1 [Compound 18c] . Its measured TNF-α secreted in the presence of LPS and 17c-20c is 3956.3

Value of measured TNF-α secreted in the presence of LPS and 17c-20c for the entry O=C(OC[C@H]1O[C@@H](OC(=O)c2ccc(-c3ccc(C(=O)O[C@@H]4O[C@H](COC(=O)c5cc(O)c(O)c(O)c5)[C@@H](OC(=O)c5cc(O)c(O)c(O)c5)[C@H](OC(=O)c5cc(O)c(O)c(O)c5)[C@H]4OC(=O)c4cc(O)c(O)c(O)c4)cc3)cc2)[C@H](OC(=O)c2cc(O)c(O)c(O)c2)[C@@H](OC(=O)c2cc(O)c(O)c(O)c2)[C@@H]1OC(=O)c1cc(O)c(O)c(O)c1)c1cc(O)c(O)c(O)c1 [Compound 19c] : 2561.2

Measured TNF-α secreted in the presence of LPS and 17c-20c, O=C(OC[C@H]1O[C@@H](OC(=O)c2ccc(C(=O)O[C@@H]3O[C@H](COC(=O)c4cc(O)c(O)c(O)c4)[C@@H](OC(=O)c4cc(O)c(O)c(O)c4)[C@H](OC(=O)c4cc(O)c(O)c(O)c4)[C@H]3OC(=O)c3cc(O)c(O)c(O)c3)cc2)[C@H](OC(=O)c2cc(O)c(O)c(O)c2)[C@@H](OC(=O)c2cc(O)c(O)c(O)c2)[C@@H]1OC(=O)c1cc(O)c(O)c(O)c1)c1cc(O)c(O)c(O)c1 [Compound 17c] : 1811.6

Moving on to another compound below.
Value of measured TNF-α secreted in the presence of LPS and 17c-20c for the entry O=C(CCCCCC(=O)OC1O[C@H](COC(=O)c2cc(O)c(O)c(O)c2)[C@@H](OC(=O)c2cc(O)c(O)c(O)c2)[C@H](OC(=O)c2cc(O)c(O)c(O)c2)[C@H]1OC(=O)c1cc(O)c(O)c(O)c1)OC1O[C@H](COC(=O)c2cc(O)c(O)c(O)c2)[C@@H](OC(=O)c2cc(O)c(O)c(O)c2)[C@H](OC(=O)c2cc(O)c(O)c(O)c2)[C@H]1OC(=O)c1cc(O)c(O)c(O)c1 (mixture of isomers) [Compound 20c] : 2628.4

====

Tested on: LPS induced TNF-α secretion from h-PBMC's
assay.summary: Inhibition of LPS induced TNF-α secretion from h-PBMC's
Assay type: cell-based, human
measurement.setup: LPS 5 μg/mL, compound 10 μg/mL added after 45 minutes; time 4 h; h-PBMC's 3rd subject; ± SD
Can you tell me TNF-α secreted in the presence of LPS and 17c-20c for the items I'm about to list?
Kindly write the number and append the unit.

Guide cases for TNF-α secreted in the presence of LPS and 17c-20c, answers given:
TNF-α secreted in the presence of LPS and 17c-20c measured on O=C(OC[C@H]1O[C@@H](OC(=O)c2ccc(C(=O)O[C@@H]3O[C@H](COC(=O)c4cc(O)c(O)c(O)c4)[C@@H](OC(=O)c4cc(O)c(O)c(O)c4)[C@H](OC(=O)c4cc(O)c(O)c(O)c4)[C@H]3OC(=O)c3cc(O)c(O)c(O)c3)cc2)[C@H](OC(=O)c2cc(O)c(O)c(O)c2)[C@@H](OC(=O)c2cc(O)c(O)c(O)c2)[C@@H]1OC(=O)c1cc(O)c(O)c(O)c1)c1cc(O)c(O)c(O)c1 [Compound 17c] = 1896.3 ± 140.9 pg/mL

Query O=C(OC[C@H]1O[C@@H](OC(=O)c2cccc(C(=O)O[C@@H]3O[C@H](COC(=O)c4cc(O)c(O)c(O)c4)[C@@H](OC(=O)c4cc(O)c(O)c(O)c4)[C@H](OC(=O)c4cc(O)c(O)c(O)c4)[C@H]3OC(=O)c3cc(O)c(O)c(O)c3)c2)[C@H](OC(=O)c2cc(O)c(O)c(O)c2)[C@@H](OC(=O)c2cc(O)c(O)c(O)c2)[C@@H]1OC(=O)c1cc(O)c(O)c(O)c1)c1cc(O)c(O)c(O)c1 [Compound 18c] yields TNF-α secreted in the presence of LPS and 17c-20c of 1523.3 ± 472.8 pg/mL

Input O=C(OC[C@H]1O[C@@H](OC(=O)c2ccc(-c3ccc(C(=O)O[C@@H]4O[C@H](COC(=O)c5cc(O)c(O)c(O)c5)[C@@H](OC(=O)c5cc(O)c(O)c(O)c5)[C@H](OC(=O)c5cc(O)c(O)c(O)c5)[C@H]4OC(=O)c4cc(O)c(O)c(O)c4)cc3)cc2)[C@H](OC(=O)c2cc(O)c(O)c(O)c2)[C@@H](OC(=O)c2cc(O)c(O)c(O)c2)[C@@H]1OC(=O)c1cc(O)c(O)c(O)c1)c1cc(O)c(O)c(O)c1 [Compound 19c] . Output TNF-α secreted in the presence of LPS and 17c-20c: 1880.0 ± 20.1 pg/mL

Next:
Form: compound = O=C(CCCCCC(=O)OC1O[C@H](COC(=O)c2cc(O)c(O)c(O)c2)[C@@H](OC(=O)c2cc(O)c(O)c(O)c2)[C@H](OC(=O)c2cc(O)c(O)c(O)c2)[C@H]1OC(=O)c1cc(O)c(O)c(O)c1)OC1O[C@H](COC(=O)c2cc(O)c(O)c(O)c2)[C@@H](OC(=O)c2cc(O)c(O)c(O)c2)[C@H](OC(=O)c2cc(O)c(O)c(O)c2)[C@H]1OC(=O)c1cc(O)c(O)c(O)c1 (mixture of isomers) [Compound 20c] ; TNF-α secreted in the presence of LPS and 17c-20c = 2370.1 ± 95.7 pg/mL
